molecular target: UniProtKB Q08881
Sequence (Q08881 whole entry): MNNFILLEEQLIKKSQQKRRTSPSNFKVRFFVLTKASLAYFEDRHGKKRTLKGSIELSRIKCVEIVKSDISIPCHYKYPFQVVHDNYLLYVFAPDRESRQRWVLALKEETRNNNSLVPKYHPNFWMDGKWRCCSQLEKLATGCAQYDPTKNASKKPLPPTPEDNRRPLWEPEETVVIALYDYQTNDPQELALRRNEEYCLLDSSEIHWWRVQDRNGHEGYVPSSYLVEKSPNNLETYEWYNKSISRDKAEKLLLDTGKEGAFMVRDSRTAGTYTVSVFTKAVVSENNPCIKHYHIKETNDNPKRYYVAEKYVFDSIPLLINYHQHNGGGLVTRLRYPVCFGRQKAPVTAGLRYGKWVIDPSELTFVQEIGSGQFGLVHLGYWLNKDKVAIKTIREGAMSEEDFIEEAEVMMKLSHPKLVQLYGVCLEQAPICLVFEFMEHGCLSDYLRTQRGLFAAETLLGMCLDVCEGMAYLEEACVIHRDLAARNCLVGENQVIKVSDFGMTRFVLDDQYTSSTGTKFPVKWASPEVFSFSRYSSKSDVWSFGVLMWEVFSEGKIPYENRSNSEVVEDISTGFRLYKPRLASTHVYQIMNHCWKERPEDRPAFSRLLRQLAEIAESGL
pIC50: −log10 of the molar value.
REPORTED_ENDPOINT: pIC50

Some compounds with known pIC50 results, for comparison:
[
  {
    "COMPOUND": "Cc1cc2[nH]c(-c3n[nH]c4c3C[C@@H]3C[C@]3(C)C4)nc2cc1N(C)C(=O)C(C)C",
    "pIC50": 8.30
  },
  {
    "COMPOUND": "C[C@@H](C(=O)N(C)c1cc(F)c2nc(-c3n[nH]c4c3C[C@@H]3C[C@]3(C)C4)[nH]c2c1)N1CCCOC1=O",
    "pIC50": 7.51
  },
  {
    "COMPOUND": "CC(=O)Nc1cc2nc(-c3n[nH]c4c3C[C@@H]3C[C@]3(C)C4)[nH]c2cc1C",
    "pIC50": 7.15
  },
  {
    "COMPOUND": "CCN(C(C)=O)c1cc2nc(-c3n[nH]c4c3C[C@@H]3C[C@]3(C)C4)[nH]c2cc1C",
    "pIC50": 7.80
  }
]

(A) CCC(=O)N(C)c1cc2nc(-c3n[nH]c4c3C[C@@H]3C[C@]3(C)C4)[nH]c2cc1C
(B) CC(=O)N(C)c1ccc2[nH]c(-c3n[nH]c4c3C[C@H]3C(F)(F)[C@@]3(C)C4)nc2c1
(C) Cc1cc2[nH]c(-c3n[nH]c4c3C[C@@H]3C[C@]3(C)C4)nc2cc1N(C)C(=O)C(C)N1CCCC1=O (some centres unmarked)
(D) COCCOc1cc2[nH]c(-c3n[nH]c4c3C[C@@H]3C[C@]3(C)C4)nc2cc1N(C)C(C)=O
Rank descending by pIC50. // list labels; follow requested order
A, D, C, B

(a) CCOCC(=O)N(C)c1cc2nc(-c3n[nH]c4c3C[C@@H]3C[C@]3(C)C4)[nH]c2cc1C
(b) Cc1cc2[nH]c(-c3n[nH]c4c3C[C@@H]3C[C@]3(C)C4)nc2cc1N(C)C(=O)[C@H]1CCOC1
// pick min by pIC50: a , b Indicate which entry you chose by stating its label.
b
(b: 7.89, a: 8.15)

(P) Cc1cc2[nH]c(-c3n[nH]c4c3C[C@@H]3C[C@]3(C)C4)nc2cc1N(C)C(=O)C1CCC1
(Q) Cc1cc2[nH]c(-c3n[nH]c4c3C[C@@H]3C[C@]3(C)C4)nc2cc1N(C)C(=O)C(C)N1CCCCC1 (some centres unmarked)
(R) Cc1cc2[nH]c(-c3n[nH]c4c3C[C@@H]3C[C@]3(C)C4)nc2cc1N(C)C(=O)C1CC1
(S) CC(=O)N(C)c1cc2nc(-c3n[nH]c4c3C[C@@H]3C[C@]3(C)C4)[nH]c2c(F)c1C
Sort by pIC50, descending. Lab note: record answer as labels in requested order.
P, R, S, Q

---

biological target: Tropomyosin Receptor Kinase A (TRKA, NTRK1 enzyme) (Homo sapiens (Human), UniProt P04629); test: TRKA (NTRK1) ThermoFisher Z'-LYTE assay; assay type: biochemical; details: test compound 1 uM, ATP 1 mM; arithmetic mean of count n; read-out: TRKA % inhibition
Sequence (P04629 33-796): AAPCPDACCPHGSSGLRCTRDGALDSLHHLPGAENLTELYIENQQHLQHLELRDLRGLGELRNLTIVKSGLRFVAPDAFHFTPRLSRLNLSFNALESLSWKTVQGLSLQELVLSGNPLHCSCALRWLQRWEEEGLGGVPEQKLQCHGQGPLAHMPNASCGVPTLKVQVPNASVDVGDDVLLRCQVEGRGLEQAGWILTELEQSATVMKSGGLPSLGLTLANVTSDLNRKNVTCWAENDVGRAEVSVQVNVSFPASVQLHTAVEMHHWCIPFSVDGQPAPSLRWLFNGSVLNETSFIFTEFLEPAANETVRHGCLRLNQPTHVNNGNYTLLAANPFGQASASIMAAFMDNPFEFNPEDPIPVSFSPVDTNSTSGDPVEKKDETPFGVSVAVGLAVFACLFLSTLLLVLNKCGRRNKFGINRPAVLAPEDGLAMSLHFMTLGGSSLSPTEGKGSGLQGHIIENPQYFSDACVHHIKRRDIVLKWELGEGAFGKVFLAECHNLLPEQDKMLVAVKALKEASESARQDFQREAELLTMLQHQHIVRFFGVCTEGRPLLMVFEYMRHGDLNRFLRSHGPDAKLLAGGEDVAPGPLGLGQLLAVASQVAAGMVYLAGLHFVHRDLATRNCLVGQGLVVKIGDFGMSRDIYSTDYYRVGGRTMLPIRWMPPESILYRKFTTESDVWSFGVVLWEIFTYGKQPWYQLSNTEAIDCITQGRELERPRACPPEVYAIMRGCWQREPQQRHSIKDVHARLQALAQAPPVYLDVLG
REPORTED_ENDPOINT: inhibition at 1 µM (%)

[
  {
    "STRUCTURE_SMILES_STRING": "Cc1cc2[nH]c(-c3n[nH]c4c3C[C@@H]3C[C@]3(C)C4)nc2cc1N(C)C(=O)[C@H]1CCCO1",
    "SYSTEM": "Tropomyosin Receptor Kinase A (TRKA, NTRK1 enzyme) (Homo sapiens (Human), UniProt P04629)",
    "ASSAY_VALUE": 97
  },
  {
    "STRUCTURE_SMILES_STRING": "COCCOc1cc2[nH]c(-c3n[nH]c4c3C[C@@H]3C[C@]3(C)C4)nc2cc1N(C)C(C)=O",
    "SYSTEM": "Tropomyosin Receptor Kinase A (TRKA, NTRK1 enzyme) (Homo sapiens (Human), UniProt P04629)",
    "ASSAY_VALUE": 105
  },
  {
    "STRUCTURE_SMILES_STRING": "CCOCC(=O)N(C)c1cc2nc(-c3n[nH]c4c3C[C@@H]3C[C@]3(C)C4)[nH]c2cc1C",
    "SYSTEM": "Tropomyosin Receptor Kinase A (TRKA, NTRK1 enzyme) (Homo sapiens (Human), UniProt P04629)",
    "ASSAY_VALUE": 97
  },
  {
    "STRUCTURE_SMILES_STRING": "CC(=O)N(CC(=O)N(C)c1cc2nc(-c3n[nH]c4c3C[C@@H]3C[C@]3(C)C4)[nH]c2cc1C)C(C)C",
    "SYSTEM": "Tropomyosin Receptor Kinase A (TRKA, NTRK1 enzyme) (Homo sapiens (Human), UniProt P04629)",
    "ASSAY_VALUE": 97
  },
  {
    "STRUCTURE_SMILES_STRING": "COc1cc2[nH]c(-c3n[nH]c4c3C[C@@H]3C[C@]3(C)C4)nc2cc1N(C)C(C)=O",
    "SYSTEM": "Tropomyosin Receptor Kinase A (TRKA, NTRK1 enzyme) (Homo sapiens (Human), UniProt P04629)",
    "ASSAY_VALUE": 103
  },
  {
    "STRUCTURE_SMILES_STRING": "CC(=O)Nc1cc2nc(-c3n[nH]c4c3C[C@@H]3C[C@]3(C)C4)[nH]c2cc1C",
    "SYSTEM": "Tropomyosin Receptor Kinase A (TRKA, NTRK1 enzyme) (Homo sapiens (Human), UniProt P04629)",
    "ASSAY_VALUE": 105
  },
  {
    "STRUCTURE_SMILES_STRING": "CC(=O)N(C)c1ccc2[nH]c(-c3n[nH]c4c3C[C@@H]3C(F)(F)[C@]3(C)C4)nc2c1",
    "SYSTEM": "Tropomyosin Receptor Kinase A (TRKA, NTRK1 enzyme) (Homo sapiens (Human), UniProt P04629)",
    "ASSAY_VALUE": 95
  }
]
